Experiment: chemical genetic growth profiling, strain panel (AID 1159580);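 note: tested at 20 µM; growth read once vehicle control cultures reached saturation at 30 °C; 1 = growth at the plate median or of vehicle wells; lower values mean less growth of the strain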
Conditions: S. cerevisiae deletion strains, growth OD, locus YJL129C, strain trk1, active compounds read low
In all, about 5,500 compounds went through this assay and about 2,000 (36%) were called active. Roughly 18% stayed inconclusive and do not appear here. This is one part of the list.
Record form. Attribute: normalized growth. Fill in for each entry.
Answers are plain numbers.

// solved cases for normalized growth follow
INSERT INTO results (molecule, result) VALUES
  ('O=C(/C=C/c1ccccc1)O[C@H]1C[C@@H](O)[C@]2(O)C=CO[C@@H](O[C@@H]3O[C@H](CO)[C@@H](O)[C@H](O)[C@H]3O)[C@H]12', 1.01),
  ('COC(=O)C1[C@H]2C[C@H]3c4[nH]c5ccccc5c4CCN3C[C@@H]2CC[C@@H]1O (stereo not given in full)', 0.977),
  ('CC(=O)CC(=O)CCC(=O)O', 1.01),
  ('COC(=O)[C@@H]1C(O)CC[C@H]2CN3CCc4c([nH]c5ccccc45)[C@@H]3C[C@@H]21 (stereo not given in full)', 1.03),
  ('COc1cc(O)c(C(=O)c2ccccc2)cc1O', 0.948),
  ('CC(C)=CCc1c(O)cc2oc(C)cc(=O)c2c1O', 0.951),
  ('COc1ccc2c(c1)C1(C)CCC(=O)CC1CC2 (stereo not given)', 1.01),
  ('C=CC1=C(C(=O)O)N2C(=O)[C@@H](NC(=O)/C(=N/O)c3csc(N)n3)[C@H]2SC1', 1.02);

Please look at the items below and tell me normalized growth for each one, in order.
1. OC(CCN1CCCCC1)(c1ccccc1)c1ccccc1
2. CNc1ccccc1C(=O)N1CCc2c([nH]c3ccccc23)C1=O

Result:
0.987
0.982
